- PROTOCOL_TEXT: solvent given as SMILES
- COND: in C1CCCCC1
VALUE_TYPE: absorption maximum

COMPOUND	VALUE_TYPE	DATA_VALUE
C/C(=C\c1ccccc1)c1nc2ccccc2o1	absorption maximum	315 nm
CC(C)(C)C#Cc1ccc2c3cccc4cccc(c5cccc1c52)c43	absorption maximum	455 nm
Cc1cc(C)cc(C)c1	absorption maximum	261.57 nm
CC1(C)c2cc(C#N)ccc2-c2ccc(N3c4ccccc4Oc4ccccc43)cc21	absorption maximum	395 nm
Cc1nc(-c2ccccc2)c2ccccn12	absorption maximum	374 nm
CN(C)c1ccc2nc(-c3ccccc3)sc2c1	absorption maximum	357 nm
Cc1cccc2ccccc12	absorption maximum	293.94 nm
COc1c2ccccc2c(OC)c2c1c1ccc(F)cc1n2C	absorption maximum	395 nm
CCCCC(CC)CN1C(=O)c2cccc3c(C#Cc4ccc(N(c5ccccc5)c5ccc(C#Cc6ccc7c8c(cccc68)C(=O)N(CC(CC)CCCC)C7=O)cc5)cc4)ccc(c23)C1=O (stereo unspecified)	absorption maximum	453 nm
COc1c2ccccc2c(OC)c2c1c1ccc(C)cc1n2C	absorption maximum	402 nm
O=P1(c2ccccc2)C2=C(c3ccccc31)S(=O)(=O)c1ccccc12 (stereo unspecified)	absorption maximum	380 nm
